Values were extracted from the RNAGym collection of RNA variant scans (doi:10.1093/nar/gkz1192).

B1: CPEB3 Ribozyme (parent)
chain: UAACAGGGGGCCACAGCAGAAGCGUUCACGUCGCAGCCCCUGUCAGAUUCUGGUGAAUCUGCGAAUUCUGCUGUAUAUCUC

Variants of: B1
Assay: self-cleavage, relative activity (ratio to wild type); higher = more cleavage; in vitro, sequencing
Entries annotated with measured self-cleavage
Please give only the number in your answer, with no unit.

Worked examples, 2 variants total:
entry_sequence	self-cleavage
UAACAGGGGGCCACAGCAGAAGCGUUCACGUCGCAGCCCCUGUCAGAUUCUGGAGAAUCUGCGAAUUCUCCUGUAUAUCUC [U54A G70C]	0.39
UAACAAGGGGCCACAGCAGUAGCGUUCACGUCGCAGCCCCUGUCAGAUUCUGGUGAAUCUGCGAAUUCUGCUGUAUAUCUC [G6A A20U]	0.07

In: Recall and state the measured self-cleavage for UAACAGGGGGCCACAGCAGAAGCGUUCACGUCGCAGCCCCUGUCCGAUUCUGGUGAAUCUGCGAAUUCCGCUGUAUAUCUC [A45C U69C] .
Out: 0.27

In: Recall and state the measured self-cleavage for UAACAGGGGGCCACAGCAGAAGCGUUCACGUCGCGGCCCAUGUCAGAUUCUGGUGAAUCUGCGAAUUCUGCUGUAUAUCUC [A35G C40A] .
Out: 0.55

In: Recall and state the measured self-cleavage for UAACAGGGGGCUACAGCAGAAGCGUUCACGUCGCAGCCCCUGUCAGAUUCUGGUGAAUCUGCGAGUUCUGCUGUAUAUCUC [C12U A65G] .
Out: 1.07
